target.of.assay: HIV-1 reverse transcriptase (HXB2, group M subtype B) (Human immunodeficiency virus 1, UniProt P04585 SEQ:1-560)
experiment.description: inhibition; DDDP, K+ buffer
run.conditions: tags: expressed in E. coli; hairpin + G4, T4 connector
endpoint: IC50 (nM)
Respond numerically; units are nM and should not be typed.

[Q] Name the recorded IC50 of the binder listed here: CGCCTGATTAGCGATACTCAGGCGTTTTGGGTGGGTGGGTGGG (ssDNA) [L3]
[A] 13
